SYSTEM_TESTED: BuChE (EC 3.1.1.8, equine serum) (Equus caballus)
Construct: purchased Sigma Aldrich (Steinheim, Germany); host or cells: equine serum
Sequence (P81908 whole entry): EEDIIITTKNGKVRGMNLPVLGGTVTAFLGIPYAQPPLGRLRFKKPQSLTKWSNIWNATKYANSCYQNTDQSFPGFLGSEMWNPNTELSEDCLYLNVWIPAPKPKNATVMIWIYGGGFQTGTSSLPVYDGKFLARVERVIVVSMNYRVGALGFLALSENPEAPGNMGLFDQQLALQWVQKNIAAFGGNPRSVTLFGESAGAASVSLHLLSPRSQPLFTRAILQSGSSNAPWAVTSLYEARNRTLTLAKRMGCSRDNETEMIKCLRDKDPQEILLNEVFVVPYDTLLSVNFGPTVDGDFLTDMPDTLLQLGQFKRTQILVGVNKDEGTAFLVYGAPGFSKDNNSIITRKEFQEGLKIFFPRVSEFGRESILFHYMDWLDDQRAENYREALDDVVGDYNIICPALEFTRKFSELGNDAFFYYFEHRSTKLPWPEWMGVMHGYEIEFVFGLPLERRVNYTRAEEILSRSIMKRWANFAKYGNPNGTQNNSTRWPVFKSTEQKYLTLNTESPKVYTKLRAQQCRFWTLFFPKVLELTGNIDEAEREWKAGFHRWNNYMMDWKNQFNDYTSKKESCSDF
ASSAY: biochemical
Assay type: biochemical
ASSAY_CONDITIONS: Ellman's method, pH 8.0, 37 °C; mean ± SD of three independent experiments
ATTRIBUTE_MEASURED: IC50 (nM)
Numeric only. Scale: nM

# example entries with known answers
Cl.O=C(NCCCCCCCCNc1c2c(nc3ccccc13)CCC2)c1c2ccccc2nc2ccccc12; 178
Cl.O=C(NCCNc1c2c(nc3ccccc13)CCC2)c1c2ccccc2nc2ccccc12; 540
Cl.O=C(NCCCCCNc1c2c(nc3ccccc13)CCC2)c1c2ccccc2nc2ccccc12; 173
Cl.O=C(NCCCNc1c2c(nc3ccccc13)CCC2)c1c2ccccc2nc2ccccc12; 104
Cl.O=C(NCCCCNc1c2c(nc3ccccc13)CCC2)c1c2ccccc2nc2ccccc12; 200

Moving on to the next compound.
Exercise: Entry "Cl.O=C(NCCCCCCCNc1c2c(nc3ccccc13)CCC2)c1c2ccccc2nc2ccccc12" has what IC50?
Solution: 204
